# System: CT26
# Assay text: Antiproliferative activity against […] cells assessed as cell viability incubated for 48 hrs by MTT assay
# Format: functional
# Study conditions: Mus musculus
Property label: GI50 (µM)

A. Nc1ccc(Oc2ccc(NC(=O)Nc3ccc(Cl)c(C(F)(F)F)c3)cc2)cn1
B. Nc1ccc(Oc2ccc(NC(=O)Nc3cccc(Br)c3)cc2)cn1
C. Cc1ccc(NC(=O)Nc2ccc(Oc3cnc4[nH]ccc4c3)cc2)cc1C(F)(F)F
Provide the items ranked by increasing GI50. Form entry: labels listed in requested order.
A, B, C
(A: 12.9 µM, B: 35.6 µM, C: 55.2 µM)

====

# Tested on: CT26
# Assay text: Antiproliferative activity against […] cells assessed as cell viability incubated for 48 hrs by MTT assay
# Assay type: functional
# Study conditions: Mus musculus
Property label: GI50 (µM)

A. Nc1ccc(Oc2ccc(NC(=O)Nc3cccc(Cl)c3Cl)cc2)cn1
B. O=C(Nc1ccc(Oc2cnc3[nH]ccc3c2)cc1)Nc1ccc(Cl)c(C(F)(F)F)c1
Smaller GI50 value, A vs B ? Reply with the label of the item you choose.
B

====

GI50 overview
# System: HT-29
# Assay text: Antiproliferative activity against human HT-29 cells assessed as cell viability incubated for 48 hrs by MTT assay
# Type: functional

Example cases with answers are listed next.
# Line notation, Measured on, GI50
data = [
    ("Nc1ccc(Oc2cccc(NC(=O)Nc3ccc(F)cc3)c2)cn1", "HT-29", "> 100 µM"),
    ("Nc1ccc(Oc2ccc(NC(=O)Nc3cccc(Br)c3)cc2)cn1", "HT-29", "> 100 µM"),
]

Record "Cc1ccc(NC(=O)Nc2cccc(Oc3ccc(N)nc3)c2)cc1Cl" has HT-29 GI50 equal to > 100 µM
